# pEC50 annotations
- tested.target: GST tagged LXRalpha LBD (ligand binding domain) (Homo sapiens)
- Sequence (Q13133 209-447 limits assumed): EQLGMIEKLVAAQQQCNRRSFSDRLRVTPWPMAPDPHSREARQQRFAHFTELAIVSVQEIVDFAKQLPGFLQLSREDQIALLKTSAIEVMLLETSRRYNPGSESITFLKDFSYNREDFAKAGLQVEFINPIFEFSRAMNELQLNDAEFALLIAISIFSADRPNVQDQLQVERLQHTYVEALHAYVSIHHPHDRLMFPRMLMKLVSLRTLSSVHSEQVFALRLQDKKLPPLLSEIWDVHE
- assay.notes: LanthaScreen TR-FRET Liver X Receptor Coactivator Assay, LXR alpha-LBD
- reported.conditions: Inflection Point (potency), co-activator recruitment, relative to reference T0901317; read-out: LXR alpha IP
Note on units: pEC50 is unitless, being -log10 of a concentration expressed in mol/L.

// solved cases for pEC50 follow
• CN(C)S(=O)(=O)c1ccc(N2CCC(C3CCN(C(=O)[C@](O)(c4ccccc4)C(F)(F)F)CC3)CC2)cc1Cl = 5.69
• O=C(c1c(F)cccc1F)N1CCC(C2CCN(c3ccc(C(=O)N4CCCC4CO)c(Cl)c3)CC2)CC1 (centres unmarked) = 5.91
• CN(C)C(=O)c1ccc(N2CCC(C3CCN(C(=O)OCc4c(Cl)cccc4Cl)CC3)CC2)cc1Cl = 6.28
• CN(C)C(=O)c1ccc(N2CCC(C3CCN(C(=O)C(O)(c4ccccc4)C(F)(F)F)CC3)CC2)nc1Cl (stereo in doubt) = 5.71
• CCCC(O)(C(=O)N1CCC(C2CCN(c3ccc(C(=O)N(C)C)c(Cl)c3)CC2)CC1)C(F)(F)F (centres unmarked) [Example A-70] = 5.52
• COc1ccccc1C(C)(C)C(=O)N1CCC(C2CCN(c3ccc(C(=O)N(C)C)c(Cl)c3)CC2)CC1 = 5.97

Query block: # query: pEC50 | item O=C(c1ccc(N2CCC(C3CCN(C(=O)[C@](O)(c4ccccc4)C(F)(F)F)CC3)CC2)cc1Cl)N1CCC1CO (some centres unmarked) | system: GST tagged LXRalpha LBD (ligand binding domain) (Homo sapiens)
Result block: 5.65

Query block: And for CN(CCO)C(=O)c1ccc(N2CCC(C3CCN(C(=O)[C@](O)(c4ccccc4)C(F)(F)F)CC3)CC2)cc1Cl ?
Result block: 5.74

Query block: And the next one, CN(C)C(=O)c1ccc(N2CCC(C3CCN(C(=O)C4(c5cccc(F)c5)CCC4)CC3)CC2)cc1Cl ?
Result block: 5.65

Query block: Likewise for COc1cccc(C(O)(C(=O)N2CCC(C3CCN(c4ccc(C(=O)N(C)C)c(Cl)c4)CC3)CC2)C(F)(F)C(F)(F)F)c1 (centres unmarked) [Example A-85] ?
Result block: 5.95

Query block: Please do the same for COC1CN(C(=O)c2ccc(N3CCC(C4CCN(C(=O)[C@](O)(c5ccccc5)C(F)(F)F)CC4)CC3)cc2Cl)C1 as well.
Result block: 5.61

Query block: Please do the same for C#CC(C)(C)C(=O)N1CCC(C2CCN(c3ccc(C(=O)N(C)C)c(Cl)c3)CC2)CC1 as well.
Result block: 5.68

Query block: Check CN(C)C(=O)c1ccc(N2CCC(C3CCN(C(=O)C(F)(F)c4ccc(F)cc4)CC3)CC2)cc1Cl too.
Result block: 5.54

Query block: How about CCN(CC)C(=O)c1ccc(N2CCC(C3CCN(C(=O)C(O)(C(C)C)C(F)(F)F)CC3)CC2)cc1Cl (centres unmarked) ?
Result block: 6.94
